Target: T1, matriptase-2 (human), Q8IU80
T1 chain: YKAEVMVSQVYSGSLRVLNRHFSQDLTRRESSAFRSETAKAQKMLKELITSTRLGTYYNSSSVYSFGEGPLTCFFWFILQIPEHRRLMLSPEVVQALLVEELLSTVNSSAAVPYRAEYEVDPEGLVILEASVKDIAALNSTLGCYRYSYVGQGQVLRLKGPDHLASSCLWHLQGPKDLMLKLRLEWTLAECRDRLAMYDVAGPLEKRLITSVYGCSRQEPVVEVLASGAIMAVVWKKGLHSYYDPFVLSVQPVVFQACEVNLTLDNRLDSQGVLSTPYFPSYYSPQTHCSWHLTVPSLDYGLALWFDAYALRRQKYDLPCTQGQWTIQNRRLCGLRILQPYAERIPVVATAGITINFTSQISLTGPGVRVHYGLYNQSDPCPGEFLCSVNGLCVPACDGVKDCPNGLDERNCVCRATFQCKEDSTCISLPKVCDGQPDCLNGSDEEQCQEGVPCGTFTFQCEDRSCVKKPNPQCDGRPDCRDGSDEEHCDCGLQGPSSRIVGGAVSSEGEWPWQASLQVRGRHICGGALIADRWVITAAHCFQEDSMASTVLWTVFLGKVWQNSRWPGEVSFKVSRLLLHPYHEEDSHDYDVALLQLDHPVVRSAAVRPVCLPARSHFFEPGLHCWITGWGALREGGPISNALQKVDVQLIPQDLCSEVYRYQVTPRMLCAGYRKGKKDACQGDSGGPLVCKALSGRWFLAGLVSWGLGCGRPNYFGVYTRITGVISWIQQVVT
Assay: enzyme inhibition, selectivity profile, Morrison tight-binding fit
MEASURED QUANTITY: Ki (nM)
Report only the number, with the unit nM understood.

Lookup result for RQAR (modifications not checked) [RQAR-ketobenzothiazole] ; measured Ki: 3.3
